test: Metabolic stability in rat serum assessed as half life at pH 7.5; format: ADME, cell-free
measureName: half-life (h)
Only the number, expressed in h, is required.

structureSmilesString	half-life, h
CC(C)C[C@H](NC(=O)[C@H](CC(C)C)NC(=O)[C@H](Cc1ccc(O)cc1)NC(=O)CNC(=O)[C@H](C)NC(=O)[C@H](CO)NC(=O)[C@H](CC(N)=O)NC(=O)[C@H](CC(C)C)NC(=O)[C@@H](NC(=O)[C@H](Cc1c[nH]c2ccccc12)NC(=O)CN)[C@@H](C)O)C(=O)NCC(=O)N1CCC[C@H]1C(=O)N[C@@H](Cc1cnc[nH]1)C(=O)N[C@@H](C)C(=O)N[C@H](C(N)=O)C(C)C	0.13

Alright, here's another molecule for you.
// field: half-life; key: `CNCC(=O)N[C@@H](Cc1c[nH]c2ccccc12)C(=O)N[C@H](C(=O)N[C@@H](CC(C)C)C(=O)N[C@@H](CC(N)=O)C(=O)N[C@@H](CO)C(=O)N[C@@H](C)C(=O)NCC(=O)N[C@@H](Cc1ccc(O)cc1)C(=O)N[C@@H](CC(C)C)C(=O)N[C@@H](CC(C)C)C(=O)NCC(=O)N1CCC[C@H]1C(=O)N[C@@H](CCCCN)C(=O)N[C@@H](CCCCN)C(=O)N[C@@H](CCCCN)C(=O)N[C@@H](CCCCN)C(N)=O)[C@@H](C)O` ; value = 4.6

meta.source: ChEMBL document CHEMBL1151742
